Where do these numbers come from? They come from PubChem BioAssay (NCI).

test system: DU-145 prostate; assay: NCI-60 one-dose screen, 48 h (100 = growth as untreated, 0 = no growth, -100 = all killed); conditions: 10 µM unless noted
Compounds without any hit were thinned out: in the full panel of roughly 83,000, 20% have a hit. Calls of active or inactive are those of the source. The calls were made as follows: active = growth percent below 10; inactive = the rest.
Listed here are compounds together with their documented growth.

Below, each entry is followed by its recorded growth result.
C=C1C(=O)O[C@H]2[C@H]1CC/C(COC(=O)NCc1ccc(Cn3c(=O)sn(CCCI)c3=O)cc1)=C\CC[C@@]1(C)O[C@@H]21 : 13% (inactive)
CC[C@@H]1NC(=O)[C@H]([C@H](O)[C@H](C)C/C=C/c2ccc(CN3C(=O)C(C)=C(C)C3=O)cc2)N(C)C(=O)[C@H](C(C)C)N(C)C(=O)[C@H](CC(C)C)N(C)C(=O)[C@H](CC(C)C)N(C)C(=O)[C@@H](C)NC(=O)[C@H](C)NC(=O)[C@H](CC(C)C)N(C)C(=O)[C@H](C(C)C)NC(=O)[C@H](CC(C)C)N(C)C(=O)CN(C)C1=O : 73.9% (inactive)
Cc1ccc(S(=O)(=O)Nc2cc(Sc3ccccc3)c(O)c3ccccc23)cc1 : 84.3% (inactive)
CCCCCCCCN(CCCCCCCC)CC(O)c1cc(Cl)ccc1OC (stereo not given) : 81.8% (inactive)
Cc1nc2sc(C(=O)Nc3cccc4ncccc34)c(N)c2cc1C(C)O (stereo not given) : 109% (inactive)
CC/C(=C(/c1ccc(O)cc1)c1ccc(OCCN2CCCCCC2)cc1)c1ccc(Cl)cc1 : 82.9% (inactive)
Cc1cc(N2CCCCC2)nc(NCc2cc(Nc3ccnc4cc(Cl)ccc34)ccc2F)n1 : -1.6% (active)
CC1=C2[C@@H](CC1)[C@]1(C)O[C@@](C(C)C)(C[C@H]1OC(=O)CO)[C@H]2OC(=O)C1CC1c1ccccc1 (stereo not given in full) : 100% (inactive)

Enquiry: # returns recorded growth (system: DU-145 prostate) for Cc1cnc(C(=O)NNc2nc3sc4c(c3c(=O)[nH]2)C(C)CCC4)cn1 (stereo not given)
Return: 22.6% (inactive)

Enquiry: Could you share what growth was measured for N=c1c2c(-c3ccccc3)c(-c3ccccc3)oc2ncn1NC(=O)c1cccnc1 , tested on DU-145 prostate?
Return: 106% (inactive)

Enquiry: What reported growth corresponds to COc1ccc(C/C(C)=C(\c2ccc(O)cc2)c2ccc(OCCCN(C)C)cc2)cc1 on DU-145 prostate?
Return: 101% (inactive)

Enquiry: Form: Entry = CCCN1C(=O)/C(=c2\sc3n(c2=O)C2C(NN=3)N(CC)C(=O)N2CC)c2ccccc21 (stereo not given) | System = DU-145 prostate | growth = ____
Return: 13.6% (inactive)

Enquiry: Notebook: pull reported growth for DU-145 prostate, entry CC1=C2[C@@H](CC1)[C@]1(C)O[C@@](C3CC3)(C[C@H]1OC(=O)CO)[C@H]2OC(=O)/C=C/c1ccccc1
Return: 105% (inactive)

Enquiry: Form: Entry = Nc1nc(Nc2cccnc2)sc1C(=O)c1ccccc1F | System = DU-145 prostate | growth = ____
Return: 17.8% (inactive)

Enquiry: Request - read-out growth | tested on DU-145 prostate | compound N#C/C(=C\c1ccccc1Cl)c1cc2ccccc2[nH]1
Return: 100% (inactive)

Enquiry: Hi! What's the reported growth for Cc1ccc(-c2nc(C#N)c(S(=O)(=O)N(C)C)o2)cc1 on DU-145 prostate?
Return: 103% (inactive)

Enquiry: Quick check: growth on DU-145 prostate, item Cc1nc(-n2[nH]c(=O)ccc2=O)sc1N=Nc1ccccc1 ?
Return: 112% (inactive)

Enquiry: # query: growth | item Cn1cc(-c2csc(-c3cn(CCOC(N)=O)c4ccccc34)n2)c2cccnc21 | system: DU-145 prostate
Return: 103% (inactive)

Enquiry: Please provide the recorded growth for CCOC(=O)CC1CSC(c2cccc(Cl)c2)=N1 (stereo not given) , tested on DU-145 prostate.
Return: 111% (inactive)

Enquiry: Please provide the recorded growth for CCCCC1COc2cccc3c2N1C=C/C3=C\C(=O)N(C)c1cccc(Cl)c1 (stereo not given) , tested on DU-145 prostate.
Return: 103% (inactive)

Enquiry: growth of NC(=O)c1c(NC(=O)/C=C/c2cccs2)sc2c1CCC(=O)C2 on DU-145 prostate?
Return: 81.6% (inactive)

Enquiry: Please provide the recorded growth for CCOC(=O)C1=C(C)N=C2SC=C(c3ccc(F)cc3)N2[C@H]1c1cn(-c2ccccc2)nc1-c1ccc(Cl)cc1 , tested on DU-145 prostate.
Return: 104% (inactive)
